EXPERIMENTAL_DETAILS: logP by HPLC, reverse-phase column (C 18), acidic range
Assay type: physicochemical
DETAILS: reverse-phase HPLC column (C 18); determined at pH=2.3; starting material of formula (IV)
RECORDED_METRIC: chromatographic logP
Answer with the value's number alone.

[ask] Please look at this compound and report its chromatographic logP: "CCOn1c(CC)nn(Cc2cc(C(F)(F)F)ccc2C(=O)c2c(C(=O)OC)noc2C2CC2)c1=O"
[reply] 3.56

###

EXPERIMENTAL_DETAILS: logP by HPLC, reverse-phase column (C 18), acidic range
Assay type: physicochemical
DETAILS: reverse-phase HPLC column (C 18); determined at pH=2
RECORDED_METRIC: chromatographic logP
Answer with the value's number alone.

[ask] Please look at this compound and report its chromatographic logP: CCOc1nn(Cc2cc(C(F)(F)F)ccc2C(=O)C(C#N)C(=O)C2CC2)c(=O)n1C1CC1 (stereo not shown) [Example 1]
[reply] 3.35

###

EXPERIMENTAL_DETAILS: logP by HPLC, reverse-phase column (C 18), acidic range
Format: physicochemical
DETAILS: reverse-phase HPLC column (C 18); a) acidic range; starting material of formula (III)
RECORDED_METRIC: chromatographic logP
Answer with the value's number alone.

[ask] Please look at this compound and report its chromatographic logP: CCOc1nn(Cc2cc(C(F)(F)F)ccc2C(=O)O)c(=O)n1C [III-2]
[reply] 2.18
